# study-target: human CDK4 / truncated (1-264) cyclin D3 complex (Homo sapiens)
# Sequence (P11802 whole entry, the tested form may be a part): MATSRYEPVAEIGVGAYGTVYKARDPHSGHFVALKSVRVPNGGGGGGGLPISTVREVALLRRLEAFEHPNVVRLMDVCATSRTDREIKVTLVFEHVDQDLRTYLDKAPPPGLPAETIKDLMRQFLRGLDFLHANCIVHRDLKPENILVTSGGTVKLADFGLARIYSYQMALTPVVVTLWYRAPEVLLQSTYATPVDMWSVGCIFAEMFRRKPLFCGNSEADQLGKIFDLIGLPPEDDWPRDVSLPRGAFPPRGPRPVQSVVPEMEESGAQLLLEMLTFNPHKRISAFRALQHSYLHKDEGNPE
# Sequence (P30281 1-264 partner limits assumed): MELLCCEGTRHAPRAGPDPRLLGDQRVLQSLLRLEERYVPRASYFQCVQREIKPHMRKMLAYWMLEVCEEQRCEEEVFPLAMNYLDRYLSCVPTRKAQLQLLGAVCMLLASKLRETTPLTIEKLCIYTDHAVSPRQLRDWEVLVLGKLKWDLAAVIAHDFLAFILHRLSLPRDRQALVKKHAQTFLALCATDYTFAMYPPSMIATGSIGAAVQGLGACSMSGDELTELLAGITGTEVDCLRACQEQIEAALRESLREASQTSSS
# test: Inhibition of CDK4/Cyclin D retinoblastoma kinase activity
# conditions-used: Rb fragment substrate, enzyme complex 5 nM
Please assign false whenever Ki is at or above 2 nM, and true whenever it is below.

{"molecule": "Nc1nc(Nc2ccc(C(=O)Nc3ccccc3)cn2)sc1C(=O)c1c(F)cccc1F [Example 1E]", "assigned-class": "false"}
{"molecule": "CN(C)CCNC(=O)c1ccc(Nc2nc(N)c(C(=O)c3c(F)cccc3F)s2)nc1 [Example 1K]", "assigned-class": "true"}
{"molecule": "C[C@H](CN(C)C)NC(=O)c1ccc(Nc2nc(N)c(C(=O)c3c(F)cccc3F)s2)cn1 [Example C1B, reference compound]", "assigned-class": "false"}
{"molecule": "CN1CCC[C@H]1CNC(=O)c1ccc(Nc2nc(N)c(C(=O)c3c(F)cccc3F)s2)cn1 [Example C1A, reference compound]", "assigned-class": "false"}
{"molecule": "Nc1nc(Nc2ccc(C(=O)NCCN3CCCC3)cn2)sc1C(=O)c1c(F)cccc1F [Example 1J]", "assigned-class": "false"}
{"molecule": "Nc1nc(Nc2ccc(C(=O)Nc3ccccn3)cn2)sc1C(=O)c1c(F)cccc1F [Example 1G]", "assigned-class": "false"}
{"molecule": "CN1CCC[C@H]1CNC(=O)c1ccc(Nc2nc(N)c(C(=O)c3c(F)cccc3F)s2)nc1 [Example 1A]", "assigned-class": "true"}
